# Test system: Plasmodium falciparum
# method-description: Antimalarial activity against chloroquine and mefloquine resistant Plasmodium falciparum 7G8 assessed as reduction in parasite growth incubated for 72 hrs by [3H]-hypoxanthine incorporation assay
# Type: functional, organism-based
assay-endpoint: EC50 (nM)
Report only the number, with the unit nM understood.

Query :: Name the value of EC50 reported for O=C(CNc1ccc(Cl)c(S(=O)(=O)N2CCOCC2)c1)Nc1ccc(F)c(Cl)c1 when tested on Plasmodium falciparum.
Result :: 26

# input for lookup
Query :: Name the value of EC50 reported for CC(C)(Nc1ccc(Cl)c(S(=O)(=O)N2CCOCC2)c1)C(=O)Nc1ccc(F)c(Cl)c1 when tested on Plasmodium falciparum.
Result :: 1
